# Tested on: SF-268 CNS
# Method description: NCI-60 one-dose screen, 48 h
# Condition details: 10 µM unless noted
Compounds without any hit were thinned out: in the full panel of roughly 83,000, 20% have a hit. Active and inactive are the calls of the source. How the source made its calls: active means growth percent below 10; inactive means the rest.
Please answer using one outcome listed in active, inactive

COCCOc1ccc2ncc(C#Cc3cncc(C(=O)Nc4ccc(CN5CCN(C)CC5)c(C(F)(F)F)c4)c3)n2n1 : active

-- ask For `CCOC(=O)c1c(NC(=O)c2cccc(C(F)(F)F)c2)sc2c1CCC(=O)C2` , what call appears in the results of this test?
-- reply inactive

-- ask For `CC(C)NC(=O)c1cc(-c2ccc(NC(=O)Nc3ccc(F)cc3)cc2)nc2cccnc12` , what call appears in the results of this test?
-- reply inactive

-- ask For `Cn1c(SCC(=O)c2ccc(F)cc2)nc2ccccc2c1=O` , what call appears in the results of this test?
-- reply inactive

-- ask For `CN1CCN(Cc2ccc(NC(=O)c3cncc(C#Cc4cnc5ccc(O[C@@H]6CCOC6)nn45)c3)cc2C(F)(F)F)CC1` , what call appears in the results of this test?
-- reply active

-- ask For `O=C(NCCNc1cc(-c2cn(-c3ccccc3)nc2-c2cccc(O)c2)ccn1)Nc1cc(C(F)(F)F)cc(C(F)(F)F)c1` , what call appears in the results of this test?
-- reply inactive

-- ask For `O=C(Nc1cccc(C(F)(F)F)c1)N1CCN(c2cc(-c3cn(-c4ccccc4)nc3-c3cccc(O)c3)ccn2)CC1` , what call appears in the results of this test?
-- reply inactive

-- ask For `O=C(/C=C/c1ccccc1Cl)Nc1ncc(Cc2cc(Cl)ccc2Cl)s1` , what call appears in the results of this test?
-- reply inactive

-- ask For `CCNC(=O)Oc1ccc(/C(=C(/C)c2ccc(Cl)cc2)c2ccc(OCCN3CCCCCC3)cc2)cc1` , what call appears in the results of this test?
-- reply inactive

-- ask For `CC1=C(C)C(=O)C(Nc2ccc(C)cc2)=C(Br)C1=O` , what call appears in the results of this test?
-- reply inactive

-- ask For `CC1=C(C)C(=O)C(Nc2cccc(C)c2)=C(Br)C1=O` , what call appears in the results of this test?
-- reply inactive

-- ask For `O=C(CSc1nnc(-c2ccc(Cl)cc2)n1-c1ccccc1)Nc1ccc(Cl)cc1` , what call appears in the results of this test?
-- reply inactive

-- ask For `O=C(CCCCCCNC(=O)C(O)(O)C(F)(F)F)Nc1nc2ccccc2s1` , what call appears in the results of this test?
-- reply active
